# credit: ChEMBL document CHEMBL3526118

- target_or_test_system: CYP3A4 (Homo sapiens)
- Sequence (P08684 whole entry): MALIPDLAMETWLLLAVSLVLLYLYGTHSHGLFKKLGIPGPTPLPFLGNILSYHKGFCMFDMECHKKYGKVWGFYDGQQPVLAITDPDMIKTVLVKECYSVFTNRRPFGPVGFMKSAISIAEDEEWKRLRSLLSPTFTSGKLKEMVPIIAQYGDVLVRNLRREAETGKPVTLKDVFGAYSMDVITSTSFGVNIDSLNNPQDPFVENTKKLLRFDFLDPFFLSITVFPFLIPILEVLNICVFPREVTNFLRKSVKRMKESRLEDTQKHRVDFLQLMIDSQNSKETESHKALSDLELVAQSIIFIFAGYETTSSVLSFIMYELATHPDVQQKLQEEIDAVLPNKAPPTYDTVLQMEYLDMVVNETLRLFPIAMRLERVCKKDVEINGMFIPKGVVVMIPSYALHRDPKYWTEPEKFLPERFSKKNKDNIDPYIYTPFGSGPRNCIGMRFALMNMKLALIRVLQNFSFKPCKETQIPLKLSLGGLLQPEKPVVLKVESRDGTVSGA
- test_protocol: in vitro
readout: inhibition at 100 µM

Give measured inhibition at 100 µM for every item shown.
1. CC[C@H]1OC(=O)[C@H](C)[C@@H](O[C@H]2C[C@@](C)(OC)[C@@H](O)[C@H](C)O2)[C@H](C)[C@@H](O[C@@H]2O[C@H](C)C[C@H](N(C)C)[C@H]2O)[C@](C)(O)C[C@@H](C)C(=O)[C@H](C)[C@@H](O)[C@]1(C)O [ERYTHROMYCIN]
2. COc1ccc2c(c1)c(CC(=O)O)c(C)n2C(=O)c1ccc(Cl)cc1 [INDOMETHACIN]
3. CC(C)NCC(O)COc1cccc2ccccc12 (centres undefined) [PROPRANOLOL]
4. CC/C(=C(\c1ccccc1)c1ccc(OCCN(C)C)cc1)c1ccccc1 [TAMOXIFEN]
5. O=C(O)COc1ccc(C(=O)c2cccs2)c(Cl)c1Cl

1: 45%; 2: < 10%; 3: < 10%; 4: < 10%; 5: < 10%
